Reference for the values: ChEMBL document CHEMBL2434837

- Test system: MCF7
- test_name: Cytotoxicity against human MCF7 cells after 48 hrs by SRB assay
- Type: functional, cell-based
- measurement_setup: Homo sapiens, MCF7, 48 h; read-out: IC50
assay_endpoint: IC50 (µg/mL)
Dear colleague, please return just the value in µg/mL, with no unit written.

compound=N#Cc1c(-c2ccc(Cl)cc2)cc(-c2ccc(Cl)cc2)n([C@@H]2O[C@H](CO)[C@@H](O)[C@H](O)[C@H]2O)c1=O tested_on=MCF7 value_measured=14.2
compound=CCn1c(-c2ccc(Cl)cc2)cc(-c2ccc(Cl)cc2)c(C#N)c1=O tested_on=MCF7 value_measured=19.7
compound=CC(=O)OC[C@H]1O[C@@H](n2c(-c3ccc(Cl)cc3)cc(-c3ccc(Cl)cc3)c(C#N)c2=O)[C@H](OC(C)=O)[C@@H](OC(C)=O)[C@@H]1OC(C)=O tested_on=MCF7 value_measured=6.3
compound=N#Cc1c(-c2ccc(Cl)cc2)cc(-c2ccc(Cl)cc2)n([C@@H]2O[C@H](CO)[C@@H](O)[C@H]2O)c1=O tested_on=MCF7 value_measured=5.7
compound=C#CCn1c(-c2ccc(Cl)cc2)cc(-c2ccc(Cl)cc2)c(C#N)c1=O tested_on=MCF7 value_measured=16.7
compound=N#Cc1c(-c2ccc(Cl)cc2)cc(-c2ccc(Cl)cc2)n(Cc2ccccc2)c1=O tested_on=MCF7 value_measured=3.65
compound="N#Cc1c(-c2ccc(Cl)cc2)cc(-c2ccc(Cl)cc2)n(CC(O)CCl)c1=O (stereo unspecified)" tested_on=MCF7 value_measured=4.6
compound=N#Cc1c(-c2ccc(Cl)cc2)cc(-c2ccc(Cl)cc2)n(C(=O)c2ccccc2)c1=O tested_on=MCF7 value_measured=2.6

Query :: Give the value of IC50 reported for the following: C=CCn1c(-c2ccc(Cl)cc2)cc(-c2ccc(Cl)cc2)c(C#N)c1=O
Result :: 19

Query :: Give the value of IC50 reported for the following: N#Cc1c(-c2ccc(Cl)cc2)cc(-c2ccc(Cl)cc2)n(CC2CO2)c1=O (stereo unspecified)
Result :: 5

Query :: Give the value of IC50 reported for the following: N#Cc1c(-c2ccc(Cl)cc2)cc(-c2ccc(Cl)cc2)n([C@@H]2O[C@H](COC(=O)c3ccccc3)[C@@H](OC(=O)c3ccccc3)[C@H]2OC(=O)c2ccccc2)c1=O
Result :: 5.9

###

- Test system: HepG2
- test_name: Inhibition of uPA protein expression in human HepG2 cells at 0.1 time compound IC50 after 48 hrs by ELISA
- Type: functional
assay_endpoint: inhibition (INH) (%)
Dear colleague, please return just the value in %, with no unit written.

compound_string=C#CCn1c(-c2ccc(Cl)cc2)cc(-c2ccc(Cl)cc2)c(C#N)c1=O tested_on=HepG2 value_measured=5

Query :: Give the value of inhibition (INH) reported for the following: N#Cc1c(-c2ccc(Cl)cc2)cc(-c2ccc(Cl)cc2)n([C@@H]2O[C@H](COC(=O)c3ccccc3)[C@@H](OC(=O)c3ccccc3)[C@H]2OC(=O)c2ccccc2)c1=O
Result :: 60

Query :: Give the value of inhibition (INH) reported for the following: N#Cc1c(-c2ccc(Cl)cc2)cc(-c2ccc(Cl)cc2)n([C@@H]2O[C@H](CO)[C@@H](O)[C@H](O)[C@H]2O)c1=O
Result :: 6

Query :: Give the value of inhibition (INH) reported for the following: N#Cc1c(-c2ccc(Cl)cc2)cc(-c2ccc(Cl)cc2)n(C(=O)c2ccccc2)c1=O
Result :: 87

###

- Tested on: HepG2
- test_name: Inhibition of uPA protein expression in human HepG2 cells at 0.1 time compound IC50 after 48 hrs by ELISA
- Assay type: functional
A collection of compounds and their measured inhibition (INH)
Dear colleague, please return just the value in %, with no unit written.

# example entries with known answers
compound="N#Cc1c(-c2ccc(Cl)cc2)cc(-c2ccc(Cl)cc2)n(CC2CO2)c1=O (stereo not drawn)" value_measured=63
compound=N#Cc1c(-c2ccc(Cl)cc2)cc(-c2ccc(Cl)cc2)n(Cc2ccccc2)c1=O value_measured=83
compound=C=CCn1c(-c2ccc(Cl)cc2)cc(-c2ccc(Cl)cc2)c(C#N)c1=O value_measured=5
compound="COc1cccc2c1C(=O)c1c(O)c3c(c(O)c1C2=O)C[C@@](O)(C(=O)CO)C[C@@H]3O[C@H]1C[C@H](N)[C@H](O)[C@H](C)O1 [DOXORUBICIN]" value_measured=88
compound="N#Cc1c(-c2ccc(Cl)cc2)cc(-c2ccc(Cl)cc2)n(CC(O)CCl)c1=O (stereo not drawn)" value_measured=67
compound=N#Cc1c(-c2ccc(Cl)cc2)cc(-c2ccc(Cl)cc2)n([C@@H]2O[C@H](CO)[C@@H](O)[C@H]2O)c1=O value_measured=56
compound=CC(=O)OC[C@H]1O[C@@H](n2c(-c3ccc(Cl)cc3)cc(-c3ccc(Cl)cc3)c(C#N)c2=O)[C@H](OC(C)=O)[C@@H](OC(C)=O)[C@@H]1OC(C)=O value_measured=48

Pending compound:
Query :: Give the value of inhibition (INH) reported for the following: CCn1c(-c2ccc(Cl)cc2)cc(-c2ccc(Cl)cc2)c(C#N)c1=O
Result :: 2
